Reported Dmax values follow for various compounds
# target or test system: androgen receptor (AR) (Homo sapiens, UniProt P10275, T878A)
# Construct: host or cells: LNCaP human prostate cancer cells
# Sequence (P10275 whole entry T878A): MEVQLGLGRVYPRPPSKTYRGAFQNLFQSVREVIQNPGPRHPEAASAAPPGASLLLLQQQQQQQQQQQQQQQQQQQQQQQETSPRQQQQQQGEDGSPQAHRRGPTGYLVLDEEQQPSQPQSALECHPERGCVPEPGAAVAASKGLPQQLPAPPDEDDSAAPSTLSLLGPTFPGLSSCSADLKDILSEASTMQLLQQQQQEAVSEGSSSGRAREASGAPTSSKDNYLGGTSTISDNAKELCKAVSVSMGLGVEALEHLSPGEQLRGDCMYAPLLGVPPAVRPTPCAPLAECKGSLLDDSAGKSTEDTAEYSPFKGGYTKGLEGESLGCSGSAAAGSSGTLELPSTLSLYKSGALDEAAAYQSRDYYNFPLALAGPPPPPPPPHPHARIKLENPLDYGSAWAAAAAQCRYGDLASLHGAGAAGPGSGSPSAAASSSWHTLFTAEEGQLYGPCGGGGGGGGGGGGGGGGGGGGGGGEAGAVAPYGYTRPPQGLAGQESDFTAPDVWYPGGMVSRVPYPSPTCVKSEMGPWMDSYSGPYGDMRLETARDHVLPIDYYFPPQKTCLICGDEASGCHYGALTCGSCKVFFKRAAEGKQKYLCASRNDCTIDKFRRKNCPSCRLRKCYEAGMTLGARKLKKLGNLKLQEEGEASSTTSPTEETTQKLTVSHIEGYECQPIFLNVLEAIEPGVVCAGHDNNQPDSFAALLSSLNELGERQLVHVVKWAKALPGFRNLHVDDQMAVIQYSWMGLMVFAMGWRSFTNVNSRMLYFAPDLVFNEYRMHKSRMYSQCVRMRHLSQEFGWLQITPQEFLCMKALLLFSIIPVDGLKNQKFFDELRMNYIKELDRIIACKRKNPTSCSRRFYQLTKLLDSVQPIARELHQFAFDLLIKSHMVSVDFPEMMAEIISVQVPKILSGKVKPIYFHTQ
# assay summary: Degradation activity on androgen receptor in LNCaP cells (AR ELISA)
# Assay type: cell-based
# test parameters: 0.1 nM R1881, 24 hours, read-out: Max (maximum AR degradation rate)
# Procedure: The plate was incubated in a 37° C., 5% CO2 cell incubator for three days. […] A blank control cell well containing 0.5% DMSO was set up. The plate was incubated in a 37° C., 5% CO2 cell incubator for 24 hours. […] The lysate was well mixed by pipetting up and down and then centrifuged at 4000 rpm at 4° C. for 10 minutes. […] The plate was sealed and incubated in a 37° C. incubator for 1 hour. […] The plate was sealed and then incubated in a 37° C. incubator for 30 minutes.
Give a bare numeral; the unit % is implied.

Some solved cases for reference:
INSERT INTO assay_data (compound, unit_text, recorded_result) VALUES
  ('C[C@H]1CC2(CCN(c3ccc(C(=O)N4CCN(CC(=O)Nc5cccc(NC6CCC(=O)NC6=O)c5)CC4)cc3)CC2)CN1c1ccc(C#N)c(Cl)c1 (stereo partly drawn) [Example 42]', '%', 90),
  ('C[C@H]1CC2(CCN(c3ccc(C(=O)N4CCC(N5CCN(c6ccc(C(=O)NC7CCC(=O)NC7=O)nc6)CC5)CC4)cc3)CC2)CN1c1ccc(C#N)c(Cl)c1 (stereo partly drawn) [Example 2]', '%', 90),
  ('C[C@H]1CC2(CCN(c3ccc(C(=O)N4CCC(CN5CCN(c6ccc(C(=O)NC7CCC(=O)NC7=O)cc6)CC5)CC4)cc3)CC2)CN1c1ccc(C#N)c(Cl)c1 (stereo partly drawn) [Example 43]', '%', 92),
  ('C[C@H]1CC2(CCN(c3ccc(C(=O)N4CCC5(CC4)CC(N4CCN(c6ccc(N7CCC(=O)NC7=O)cc6)CC4)C5)cc3)CC2)CN1c1ccc(C#N)c(Cl)c1 [Example 28]', '%', 97),
  ('C[C@H]1CC2(CCN(c3ccc(C(=O)N4CC(CN5CCN(c6cccc(NC7CCC(=O)NC7=O)c6)CC5)C4)nn3)CC2)CN1c1ccc(C#N)c(Cl)c1 (stereo partly drawn) [Example 22]', '%', 97),
  ('C[C@H]1CC2(CCN(c3ccc(C(=O)N4CCC(CN5CCC(N6CCN(c7ccc(N8CCC(=O)NC8=O)cc7)CC6)CC5)CC4)cc3)CC2)CN1c1ccc(C#N)c(Cl)c1 [Example 9]', '%', 92),
  ('C[C@H]1CC2(CCN(c3ccc(C(=O)N4CCC(N5CCN(c6cccc(NC7CCC(=O)NC7=O)c6)CC5)CC4)cc3)CC2)CN1c1ccc(C#N)c(Cl)c1 (stereo partly drawn) [Example 10]', '%', 97),
  ('C[C@H]1CC2(CCN(c3ccc(C(=O)N4CCC(CN5CCN(c6cccc(NC7CCC(=O)NC7=O)c6)CC5)CC4)cc3)CC2)CN1c1ccc(C#N)c(C(F)(F)F)c1 (stereo partly drawn) [Example 41]', '%', 96);

Now consider a different compound.
Find the measured Dmax of C[C@H]1CC2(CCN(c3ccc(C(=O)N4CCC(CN5CCN(c6ccc(C(=O)NC7CCC(=O)NC7=O)c(F)c6)CC5)CC4)cc3)CC2)CN1c1ccc(C#N)c(Cl)c1 (stereo partly drawn) [Example 3] and report it. 89
